test: FRG1 promoter luciferase signal modulators, primary screen, FRG1 inhibition for FSHD, cell-based, C2C12 myotubes, firefly/Renilla luciferase, luminescence (AID 1084); conditions: higher = more signal, called active from +8 up or from −8 down
# z-score >= 0.1 gives Y, anything below gives N

molecule	assigned-label
COc1ccc([Si](C)(C)[C@H]2[C@H](CCO)O[C@@]3(C(=O)N(Cc4ccccc4)c4ccc(N(C=O)c5ccccc5)cc43)[C@@H]2C)cc1	N
Cc1c(-c2ccc(-c3ccc(Cl)c(Cl)c3)o2)nc(-c2ccccc2)c2c1CO[Si]2(C(C)C)C(C)C	Y
CC[C@H](C)C(=O)O[C@H]1CC[C@]2(C)C3=C(CCC2C1(C)C)[C@]1(C)CC[C@H]([C@H](C)CCCC(C)C)[C@@]1(C)CC3 (some centres not stated)	Y
[N-]=[N+]=NCc1ccccc1C[C@]1(C(=O)O)COC(c2ccc(OCCCO)cc2)=N1	Y
O=C1C2C=CC(C(O)c3ccc([N+](=O)[O-])cc3)N(Nc3ccccc3)C2C(=O)N1c1ccccc1 (configuration not stated)	N
O=C1OCCC=C[C@H]2OC34C=CCN(c5ccc(Cl)cc5)C(=O)[C@H]3N(CCO)C(=O)[C@@H]4C12 (some centres not stated)	N
C=CC[C@]1(C(=O)N(C)C)COC(c2ccc(OCCCO)cc2)=N1	Y
CCCCC(O)C1C=CC2C(=O)NC(=O)C2N1Nc1ccc(Cl)cc1Cl (configuration not stated)	N
COc1cc2c(cc1O)C(c1ccc(CN3CCCC3)cc1)N(Cc1ccc([N+](=O)[O-])o1)CC2 (configuration not stated)	Y
O=C1NC(=O)C2C1C=CC(C(O)c1cccc(O)c1)N2Nc1ccc(Cl)cc1Cl (configuration not stated)	Y
NC(=O)NCC#Cc1ccc2c(c1)[C@]1(C(=O)N2)[C@H](C(=O)N2CCCCCCC2)[C@H]2C(=O)O[C@H](c3ccccc3)[C@H](c3ccccc3)N2[C@@H]1c1ccc(O)cc1	Y
C=CCC(OC(C)=O)[C@@H]1[C@@H](N(Cc2cc3ccccc3o2)C(=O)c2cccc3ccccc23)c2cc(OCCCO)ccc2N1C(=O)c1ccc2ccccc2c1 (some centres not stated)	N
COC(=O)c1c(CC[C@@H](CO)NC(=O)N[C@@H](Cc2ccccc2)Cn2cc(-c3cncn3C)nn2)oc(C(C)=O)c1C(=O)OC	Y
COCCOC(=O)N1C(=O)[C@@]2(c3cc(C#CC4=CCCCC4)ccc31)[C@H](C(=O)N1CCN(c3ncccn3)CC1)[C@H]1C(=O)O[C@H](c3ccccc3)[C@H](c3ccccc3)N1[C@@H]2c1ccccc1OCCO	Y
CCC[C@@H]1[C@@H](Sc2ccccc2)[C@@H](C(=O)O)[C@H](c2ccc(C)cc2)N1S(=O)(=O)c1ccc(C)cc1	N
COCCOC(=O)N1C(=O)[C@@]2(c3ccccc31)[C@H](c1ccc(OCCO)cc1)N1[C@H](c3ccccc3)[C@H](c3ccccc3)OC(=O)[C@H]1[C@@H]2C(=O)N1CCN(c2ncccn2)CC1	N
O=C(NCC(F)(F)F)[C@@H]1c2ccccc2C(=O)N(CC23CC4CC(CC(C4)C2)C3)[C@H]1c1ccc(CO)cc1	N
COCCOC(=O)N1C(=O)[C@@]2(c3cc(C#CC4(O)CCCCCC4)ccc31)[C@H](C(=O)NC[C@H](O)c1ccccc1)[C@H]1C(=O)O[C@H](c3ccccc3)[C@H](c3ccccc3)N1[C@@H]2c1ccc(O)cc1	N
O=C1O[C@@H](c2ccccc2)[C@@H](c2ccccc2)N2[C@@H](c3ccc(OCCO)cc3)[C@]3(C(=O)Nc4ccc(C#CCCO)cc43)[C@@H](C(=O)Nc3nc4ccccc4s3)[C@H]12	Y
NC(=O)NCC#Cc1ccc2c(c1)[C@]1(C(=O)N2)[C@H](C(=O)Nc2nc3ccccc3s2)[C@H]2C(=O)O[C@H](c3ccccc3)[C@H](c3ccccc3)N2[C@@H]1c1ccc(OCCO)cc1	Y
COc1cccc(C[C@H]2C[C@@H](CO[Si](C(C)C)(C(C)C)C(C)C)N3C(=O)[C@@]4(C(C)=O)O[C@@]23[C@@H]2C(=O)N(C)C(=O)[C@@H]24)c1	N
CCCC[C@H]1OB(O)C[C@H]2C1=C(COC)C[C@H]1C(=O)C=CC(=O)[C@H]12	Y
O=C1OCCC=C[C@H]2OC34C=CCN(CCN5CCOCC5)C(=O)[C@H]3N(CCCO)C(=O)[C@@H]4C12 (some centres not stated)	Y
COc1ccc([Si](C)(C)[C@H]2[C@H](CCn3cc([C@H](O)c4ccccc4)nn3)O[C@@]3(C(=O)N(C)c4c(Br)cc(C)cc43)[C@@H]2C)cc1	N
COc1ccc(NN2C(C(O)c3ccc(OC)cc3)C=CC3C(=O)N(C4CCCCC4)C(=O)C32)cc1 (configuration not stated)	Y
CC(=O)c1ccc(C(O)C2C=CC3C(=O)N(C)C(=O)C3N2NC(=O)OC(C)(C)C)cc1 (configuration not stated)	Y
COCCOC(=O)N1C(=O)[C@@]2(c3cc(C#CCCO)ccc31)[C@H](c1ccc(O)cc1)N1[C@H](c3ccccc3)[C@H](c3ccccc3)OC(=O)[C@H]1[C@@H]2C(=O)N1CCc2cc(OC)c(OC)cc2C1	N
